Data origin, for the record: ChEMBL document CHEMBL1129569

Give selectivity ratio for every item shown.
Test: Protective index between TD50/MES ED50 when administered orally to rat
Assay type: ADME, organism-based
Settings: in vivo, po, read-out: PI

Look at this compound and give its reported selectivity ratio. CCOCC(NC(C)=O)C(=O)NCc1ccccc1 (stereo not given)
> 26

Look at this compound and give its reported selectivity ratio. `CC(=O)N[C@H](C)C(=O)NCc1ccccc1`
> 36

Look at this compound and give its reported selectivity ratio. CC(=O)NC(C)C(=O)NCc1ccccc1 (stereo not given)
> 21

Look at this compound and give its reported selectivity ratio. `COC[C@@H](NC(C)=O)C(=O)NCc1cccc(F)c1`
> 58

Look at this compound and give its reported selectivity ratio. `O=C1NC(=O)C(c2ccccc2)(c2ccccc2)N1`
> 22

====

Experiment: Neurotoxic toxicity against Rat was evaluated by rotarod test afte oral administration
Type: organism-based
Conditions: in vivo
measured.property: TD50

Look at this compound and give its reported TD50. `COC[C@H](NC(C)=O)C(=O)NCc1ccccc1`
> 30 mg/kg

Look at this compound and give its reported TD50. COC[C@@H](NC(C)=O)C(=O)NCc1ccccc1 [LACOSAMIDE]
> 500 mg/kg

Look at this compound and give its reported TD50. `COC[C@@H](NC(C)=O)C(=O)NCc1cccc(F)c1`
> 400 mg/kg

Look at this compound and give its reported TD50. `COC[C@@H](NC(C)=O)C(=O)NCc1ccc(F)cc1`
< 250 mg/kg

====

Assay: Protective index between TD50/MES ED50 when administered intraperitoneally to mouse
Assay type: ADME, organism-based
Settings: in vivo, ip, read-out: PI
Give selectivity ratio for every item shown.
Answer with the value's number alone.

Look at this compound and give its reported selectivity ratio. CCOCC(NC(C)=O)C(=O)NCc1ccccc1 (stereo not drawn)
4.6

Look at this compound and give its reported selectivity ratio. O=C1NC(=O)C(c2ccccc2)(c2ccccc2)N1 [PHENYTOIN]
6.6

====

Experiment: Neurotoxic toxicity was evaluated by rotarod test after intraperitoneal administration
Type: organism-based
Details: mouse, in vivo, ip
Give TD50 for every item shown.
Enter your answer as a number in mg/kg; do not include the unit.

Look at this compound and give its reported TD50. CC(=O)NC(CI)C(=O)NCc1ccccc1 (configuration not stated)
300

Look at this compound and give its reported TD50. CCOCC(NC(C)=O)C(=O)NCc1ccccc1 (configuration not stated)
78

Look at this compound and give its reported TD50. `COC[C@@H](NC(C)=O)C(=O)NCc1cccc(F)c1`
46

Look at this compound and give its reported TD50. CCNCC(NC(C)=O)C(=O)NCc1ccccc1 (configuration not stated)
100

====

Give selectivity ratio for every item shown.
Experiment: Protective index between TD50/MES ED50 when administered intraperitoneally to mice
Type: ADME, organism-based
Conditions: mouse, in vivo, ip; read-out: PI
Answer with the value's number alone.

Look at this compound and give its reported selectivity ratio. CONC(NC(C)=O)C(=O)NCc1ccccc1 (configuration not stated)
7.4

Look at this compound and give its reported selectivity ratio. CC(=O)NC(C)C(=O)NCc1ccccc1 (configuration not stated)
5.9

Look at this compound and give its reported selectivity ratio. `CC(=O)N[C@H](C)C(=O)NCc1ccccc1`
3.9

Look at this compound and give its reported selectivity ratio. CON(C)C(NC(C)=O)C(=O)NCc1ccccc1 (configuration not stated)
7.6

Look at this compound and give its reported selectivity ratio. `CC(=O)N[C@@H](C)C(=O)NCc1ccccc1`
1.5

Look at this compound and give its reported selectivity ratio. `COC[C@@H](NC(C)=O)C(=O)NCc1cccc(F)c1`
6.7

Look at this compound and give its reported selectivity ratio. `COC[C@@H](NC(C)=O)C(=O)NCc1ccc(F)cc1`
6.7

====

Give TD50 for every item shown.
Experiment: Neurotoxic toxicity was evaluated by rotarod test after intraperitoneal administration
Assay type: organism-based
Conditions: mouse, in vivo, ip

Look at this compound and give its reported TD50. CC(=O)NC(CN1CCOCC1)C(=O)NCc1ccccc1 (stereo not drawn)
> 300 mg/kg

Look at this compound and give its reported TD50. CC(=O)NC(CN(C)C)C(=O)NCc1ccccc1 (stereo not drawn)
> 300 mg/kg

Look at this compound and give its reported TD50. CC(=O)NC(CN)C(=O)NCc1ccccc1 (stereo not drawn)
> 100 mg/kg
